- Tested on: monoclonal antibody PG9
- measurement_protocol: ELISA of minimal epitope scaffolds with PG9
- Format: binding, human
- condition_label: GnTI- cell expression

[
  {
    "molecule": "2f7s_C: minimal PG9 epitope-scaffold, SEQ ID NO: 53, native scaffold PDB 2F7S (protein, Human immunodeficiency virus) DYDYLIKLLALGDSGVGKTTFLYRYTDNKFNPKFITTVGICVKHASFNITTDVKDRKQKVNATFYCTAGQERFRSLTTAFFRDAMGFLLMFDLTSQQSFLNVRNWMSQLQANAYCENPDIVLIGNKADLPDQREVNERQARELADKYGIPYFETSAATGQNVEKAVETLLDLIMKRMEQCVE",
    "binding to monoclonal antibody PG9": "bind"
  },
  {
    "molecule": "1x3e_C: minimal PG9 epitope-scaffold, SEQ ID NO: 68 in Table 2 (SEQ ID NO: 67 in b296), native scaffold PDB 1X3E (protein, Human immunodeficiency virus) GDTTITVVGNLTADPELRFTPSGAAVANFTVASTGSALFLRCNIWREAAENVAESLTRGSRVIVTGRLCVKHASFNITTDVKDRKQKVNATFYCVEVDEIGPSLR",
    "binding to monoclonal antibody PG9": "bind"
  },
  {
    "molecule": "1vh8_a: minimal PG9 epitope-scaffold, SEQ ID NO: 63, native scaffold PDB 1VH8 (protein, Human immunodeficiency virus) SLIRIGHGFDVHAFVKHCSFNITTDVKDRKQKVNATFYFIAHSDGDVALHALTDAILGAAALGDIGKLFPKNADSRGLLREAFRQVQEKGYKIGNVDITIIAQAPKMRPHIDAMRAKIAEDLQCDIEQVNVKATTTEKLGFTGRQEGIACEAVALLIRQ",
    "binding to monoclonal antibody PG9": "bind"
  }
]
